Biological target: Alpha amylase (Homo sapiens, UniProt P0DUB6)
Sequence (P0DUB6 whole entry): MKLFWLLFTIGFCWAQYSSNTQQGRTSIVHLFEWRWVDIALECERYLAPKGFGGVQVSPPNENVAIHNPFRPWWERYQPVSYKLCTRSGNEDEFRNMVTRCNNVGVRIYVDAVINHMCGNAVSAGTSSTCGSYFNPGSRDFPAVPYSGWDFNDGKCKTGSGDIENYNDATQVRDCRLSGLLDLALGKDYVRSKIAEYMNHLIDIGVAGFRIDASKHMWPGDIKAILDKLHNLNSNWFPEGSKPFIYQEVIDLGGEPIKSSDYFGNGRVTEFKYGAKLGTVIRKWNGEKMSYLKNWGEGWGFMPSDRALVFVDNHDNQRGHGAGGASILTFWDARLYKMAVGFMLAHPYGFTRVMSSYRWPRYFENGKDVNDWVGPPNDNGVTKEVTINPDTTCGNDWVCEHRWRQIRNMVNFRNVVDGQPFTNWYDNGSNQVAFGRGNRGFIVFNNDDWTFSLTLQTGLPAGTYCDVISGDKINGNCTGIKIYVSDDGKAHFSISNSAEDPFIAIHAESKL
Assay: Inhibition of alpha-amylase (unknown origin) using starch as substrate preincubated for 10 mins followed by substrate addition measured after 10 mins by dinitrosalicylic acid reagent-based assay
IC50: recorded values
The answer is to be given in nM; state only the numeric part.

1) Oc1c(Cl)cc(Cl)cc1-c1nc2cc(F)ccc2[nH]1 | 2870
2) COc1cc(-c2nc3cc(Cl)ccc3[nH]2)cc(I)c1O | 1610
3) COc1ccc(Br)cc1-c1nc2cc(Cl)ccc2[nH]1 | 2620
4) COc1cc(-c2nc3cc(F)ccc3[nH]2)ccc1OC(C)=O | 1680

Lookup: Provide one value: measured IC50 of Oc1c(Br)cc(Cl)cc1-c1nc2ccccc2[nH]1
Found: 2850

Lookup: Provide one value: measured IC50 of Cc1cc2nc(-c3cc(Cl)cc(Br)c3O)[nH]c2cc1C
Found: 2920

----------
Target: Alpha amylase (Homo sapiens)
Test: Inhibition of alpha-amylase (unknown origin) using starch as substrate preincubated for 10 mins followed by substrate addition measured after 10 mins by dinitrosalicylic acid reagent-based assay
# label = MET if IC50 < 2000 nM else NOT MET

Example results:
1) COc1ccc(-c2nc3cc(Cl)ccc3[nH]2)c(Cl)c1OC | MET
2) O=[N+]([O-])c1ccc2[nH]c(-c3cc(Cl)cc(Br)c3O)nc2c1 | NOT MET
3) COc1cc(-c2nc3cc([N+](=O)[O-])ccc3[nH]2)cc(I)c1O | MET
4) COc1cc(-c2nc3cc(C)c(C)cc3[nH]2)cc(OC)c1Br | MET
5) COc1ccc(Br)c(-c2nc3ccccc3[nH]2)c1O | NOT MET

Lookup: Answer whether the compound COc1ccc(Br)c(-c2nc3cc(F)ccc3[nH]2)c1O has IC50 strictly less than 2000 nM
Found: NOT MET

Lookup: Answer whether the compound COc1ccc(-c2nc3cc(Cl)ccc3[nH]2)c(F)c1 has IC50 strictly less than 2000 nM
Found: NOT MET

Lookup: Answer whether the compound COc1cc(Br)c(-c2nc3cc([N+](=O)[O-])ccc3[nH]2)cc1OC has IC50 strictly less than 2000 nM
Found: MET

Lookup: Answer whether the compound COc1cc(Br)c(-c2nc3cc(F)ccc3[nH]2)cc1OC has IC50 strictly less than 2000 nM
Found: MET

Lookup: Answer whether the compound O=[N+]([O-])c1ccc2[nH]c(-c3cc(Br)ccc3F)nc2c1 has IC50 strictly less than 2000 nM
Found: NOT MET

Lookup: Answer whether the compound COc1ccc(Br)c(-c2nc3cc(C)c(C)cc3[nH]2)c1O has IC50 strictly less than 2000 nM
Found: NOT MET

Lookup: Answer whether the compound COc1ccc(Br)c(-c2nc3cc([N+](=O)[O-])ccc3[nH]2)c1O has IC50 strictly less than 2000 nM
Found: NOT MET

Lookup: Answer whether the compound COc1cc(Br)c(-c2nc3ccccc3[nH]2)cc1OC has IC50 strictly less than 2000 nM
Found: MET

Lookup: Answer whether the compound COc1cccc(-c2nc3cc(F)ccc3[nH]2)c1Cl has IC50 strictly less than 2000 nM
Found: NOT MET

Lookup: Answer whether the compound COc1cc(-c2nc3cc(Cl)ccc3[nH]2)ccc1OC(C)=O has IC50 strictly less than 2000 nM
Found: MET

Lookup: Answer whether the compound Oc1c(Br)cc(Cl)cc1-c1nc2cc(Cl)ccc2[nH]1 has IC50 strictly less than 2000 nM
Found: NOT MET

Lookup: Answer whether the compound Oc1ccc(-c2nc3cc(F)ccc3[nH]2)c(O)c1O has IC50 strictly less than 2000 nM
Found: NOT MET

Lookup: Answer whether the compound COc1cccc(-c2nc3cc(Cl)ccc3[nH]2)c1Cl has IC50 strictly less than 2000 nM
Found: NOT MET

Lookup: Answer whether the compound COc1cc(-c2nc3cc(F)ccc3[nH]2)cc(OC)c1O has IC50 strictly less than 2000 nM
Found: NOT MET

Lookup: Answer whether the compound COc1cccc(-c2nc3cc([N+](=O)[O-])ccc3[nH]2)c1Cl has IC50 strictly less than 2000 nM
Found: NOT MET

Lookup: Answer whether the compound COc1cccc(-c2nc3ccccc3[nH]2)c1Cl has IC50 strictly less than 2000 nM
Found: NOT MET

Lookup: Answer whether the compound COc1cc(-c2nc3cc(C)c(C)cc3[nH]2)cc(I)c1O has IC50 strictly less than 2000 nM
Found: MET

Lookup: Answer whether the compound COc1ccc(-c2nc3cc(C)c(C)cc3[nH]2)c(OC)c1OC has IC50 strictly less than 2000 nM
Found: NOT MET

Lookup: Answer whether the compound COc1cc(Br)c(-c2nc3cc(Cl)ccc3[nH]2)cc1OC has IC50 strictly less than 2000 nM
Found: MET

Lookup: Answer whether the compound Oc1c(Br)cc(Cl)cc1-c1nc2cc(F)ccc2[nH]1 has IC50 strictly less than 2000 nM
Found: NOT MET

Lookup: Answer whether the compound Cc1cc2nc(-c3cc(Cl)cc(Cl)c3O)[nH]c2cc1C has IC50 strictly less than 2000 nM
Found: NOT MET
